# study.target: Calmodulin-1 (Homo sapiens) (UniProt P0DP23)
# protocol.text: CALM1 binders on microarrays, EGTA buffer, profiling panel, biochemical, small-molecule microarray, Cy5-labelled CALM1 (AID 1111);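 note: labelled calmodulin applied in Tris saline Tween buffer holding calcium plus EGTA and DTT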
# test.parameters: Cy5-CALM1 binding fluorescence, higher = more signal
Note to self: values exactly at -0.08 are Met. So composite z-score at or above -0.08 is Met, below is Not met.

Previously resolved entries follow.
Given `[N-]=[N+]=Nc1ccccc1C[C@]1(C(=O)N2CCCCC2)N=C(c2ccc(OCCCO)cc2)O[C@H]1c1ccccc1` , state whether its composite z-score is at least -0.08.
Met

Check if composite z-score >= -0.08 (inclusive). Item: `[N-]=[N+]=NCc1ccccc1[C@H]1OC(c2ccc(OCCCO)cc2)=N[C@@]1(CCS(=O)(=O)c1ccccc1)C(=O)O`
Met

Quick check, composite z-score >= -0.08? `COc1cccc(C)c1NC(=O)O[C@H]1[C@H](OC(=O)Nc2ccccc2)[C@@H](OC(=O)Nc2ccccc2)[C@@H](OC)O[C@@H]1CO`
Met

Next, consider the following compound.
Evaluate `COc1ccc(CCNC(=O)[C@@]2(c3ccc([N+](=O)[O-])cc3)CC(=O)N(C3CCCCC3)[C@@H]2c2ccc(CO)cc2I)cc1` : composite z-score at minimum -0.08?
Met
